Data provenance is paper PMC9785969.

# reported pIC50; entries follow
- Assay system: UniProt P00921
- Test: Carbonic anhydrase (b-CA II) inhibition assay, p-nitrophenyl acetate hydrolysis
- Format: biochemical
- Assay context: mean of three experiments; read-out: b-CA II IC50 ± SEM
pIC50: −log10 of the molar value.

>  <Smiles record>
C#CCN(C)c1ccc(/C=N/NC(N)=S)cc1

>  <pIC50>
5.30

$$$$
>  <Smiles record>
NC(=S)N/N=C/c1c(F)cccc1Cl

>  <pIC50>
6.08

$$$$
>  <Smiles record>
COc1cc2cc(OC)c(OC)c(/C=N/NC(N)=S)c2cc1OC

>  <pIC50>
6.51

$$$$
>  <Smiles record>
COc1ccc(/C=N/NC(N)=S)cc1O

>  <pIC50>
6.42

$$$$
>  <Smiles record>
NC(=S)N/N=C/c1cc([N+](=O)[O-])ccc1Cl

>  <pIC50>
6.55

$$$$
>  <Smiles record>
NC(=S)N/N=C/c1ccccc1F

>  <pIC50>
5.69

$$$$
>  <Smiles record>
NC(=S)N/N=C/c1ccc(Br)s1

>  <pIC50>
4.99

$$$$

* * *

# reported melting point; entries follow

>  <Smiles record>
COc1cc2cc(OC)c(OC)c(/C=N/NC(N)=S)c2cc1OC

>  <melting point>
240 °C

$$$$
>  <Smiles record>
NC(=S)N/N=C/c1cc([N+](=O)[O-])ccc1Cl

>  <melting point>
248 °C

$$$$
>  <Smiles record>
NC(=S)N/N=C/c1ccc(Br)s1

>  <melting point>
243 °C

$$$$
>  <Smiles record>
C#CCN(C)c1ccc(/C=N/NC(N)=S)cc1

>  <melting point>
245 °C

$$$$

* * *

- Assay system: bovine carbonic anhydrase II (b-CA II) (Bos taurus)
- Sequence (P00921 whole entry): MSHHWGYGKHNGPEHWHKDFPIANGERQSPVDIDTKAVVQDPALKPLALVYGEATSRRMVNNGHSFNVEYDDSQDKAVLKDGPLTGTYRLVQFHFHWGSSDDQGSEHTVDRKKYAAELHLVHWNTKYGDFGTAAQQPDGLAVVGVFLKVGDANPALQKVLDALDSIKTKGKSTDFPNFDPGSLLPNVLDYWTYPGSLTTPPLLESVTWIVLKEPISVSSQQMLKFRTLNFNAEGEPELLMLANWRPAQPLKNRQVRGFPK
- Test: Carbonic anhydrase (b-CA II) inhibition assay, p-nitrophenyl acetate hydrolysis
- Type: biochemical
Recorded metric: IC50

>  <Smiles record>
NC(=S)N/N=C/c1cccc(F)c1

>  <Measured>
130 nM

$$$$

* * *

- Assay system: 15-lipoxygenase (15-LOX) (Glycine max, UniProt P08170)
- Sequence (P08170 1-839): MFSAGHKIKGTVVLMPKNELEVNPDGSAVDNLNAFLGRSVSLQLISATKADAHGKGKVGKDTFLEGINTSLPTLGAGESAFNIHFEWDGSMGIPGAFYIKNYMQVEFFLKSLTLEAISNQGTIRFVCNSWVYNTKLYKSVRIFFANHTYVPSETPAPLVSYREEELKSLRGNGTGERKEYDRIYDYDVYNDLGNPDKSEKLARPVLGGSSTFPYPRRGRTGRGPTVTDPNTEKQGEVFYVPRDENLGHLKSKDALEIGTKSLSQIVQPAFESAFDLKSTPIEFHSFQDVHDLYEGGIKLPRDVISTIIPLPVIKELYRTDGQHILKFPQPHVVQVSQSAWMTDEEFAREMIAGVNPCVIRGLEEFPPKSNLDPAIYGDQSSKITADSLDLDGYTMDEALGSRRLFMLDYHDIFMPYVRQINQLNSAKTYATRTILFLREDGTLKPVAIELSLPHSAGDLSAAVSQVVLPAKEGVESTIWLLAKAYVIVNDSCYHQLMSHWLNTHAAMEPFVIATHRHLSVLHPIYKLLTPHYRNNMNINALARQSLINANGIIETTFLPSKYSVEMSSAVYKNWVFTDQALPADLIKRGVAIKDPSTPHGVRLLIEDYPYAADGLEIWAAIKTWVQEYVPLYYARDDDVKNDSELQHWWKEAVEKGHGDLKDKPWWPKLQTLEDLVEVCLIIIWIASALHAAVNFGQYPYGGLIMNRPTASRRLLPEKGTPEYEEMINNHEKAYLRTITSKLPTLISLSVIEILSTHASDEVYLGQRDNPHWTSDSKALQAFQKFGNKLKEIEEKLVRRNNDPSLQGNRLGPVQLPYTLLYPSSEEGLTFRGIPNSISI

>  <Smiles record>
COc1ccc(/C=N/NC(N)=S)cc1O

>  <Assay system>
15-lipoxygenase (15-LOX) (Glycine max, UniProt P08170)

>  <Measure unit>
nM

>  <IC50>
1340

$$$$
>  <Smiles record>
NC(=S)N/N=C/c1ccc(Br)s1

>  <Assay system>
15-lipoxygenase (15-LOX) (Glycine max, UniProt P08170)

>  <Measure unit>
nM

>  <IC50>
820

$$$$
>  <Smiles record>
NC(=S)N/N=C/c1ccccc1F

>  <Assay system>
15-lipoxygenase (15-LOX) (Glycine max, UniProt P08170)

>  <Measure unit>
nM

>  <IC50>
160

$$$$
>  <Smiles record>
NC(=S)N/N=C/c1cccc(F)c1

>  <Assay system>
15-lipoxygenase (15-LOX) (Glycine max, UniProt P08170)

>  <Measure unit>
nM

>  <IC50>
140

$$$$
>  <Smiles record>
COc1cc2cc(OC)c(OC)c(/C=N/NC(N)=S)c2cc1OC

>  <Assay system>
15-lipoxygenase (15-LOX) (Glycine max, UniProt P08170)

>  <Measure unit>
nM

>  <IC50>
370

$$$$
